- Test system: RPMI-8226 leukemia
- Test name: NCI-60 one-dose screen, 48 h
- Reported conditions: 10 µM unless noted
This is part of a sample that, as a whole, favours compounds with a hit. Of some 83,000 tested, about 20% had one in any assay. Active and inactive are the calls of the source. Rule for the calls: active = growth percent below 10; inactive = the rest.
Log the outcome using a class from YES (active), NO (inactive)

Worked examples follow.
- Smiles text: "CC(C)(C)OC(=O)N1CC(Cn2cc(C(F)(F)F)c3c(Cl)ncnc32)C1"
  Tgt: "RPMI-8226 leukemia"
  Class assignment: "YES"
- Smiles text: "COc1cc(-c2nc(SCC(=O)Nc3ccc(C(C)=O)cc3)[nH]c(=O)c2C#N)cc(OC)c1OC"
  Tgt: "RPMI-8226 leukemia"
  Class assignment: "YES"
- Smiles text: "Cc1nccc2c3ccc(OCc4cn(-c5ccc(Br)cc5)nn4)cc3n(CCCc3ccccc3)c12"
  Tgt: "RPMI-8226 leukemia"
  Class assignment: "YES"
- Smiles text: "COc1ccc2c(c1)O/C(=C/c1ccc(OCC(=O)Nc3ccc(S(N)(=O)=O)cc3)cc1)C2=O"
  Tgt: "RPMI-8226 leukemia"
  Class assignment: "NO"

[ask] Record lookup: outcome of this test for COc1ccc(C(=O)NC(=O)Nc2ccc3c(c2)NC(=O)/C3=C\c2[nH]c(C)c(CCC(=O)O)c2C)c(F)c1 ?
[reply] NO
